target-desc: TNKS1 (Homo sapiens, UniProt O95271)
Sequence (O95271 whole entry): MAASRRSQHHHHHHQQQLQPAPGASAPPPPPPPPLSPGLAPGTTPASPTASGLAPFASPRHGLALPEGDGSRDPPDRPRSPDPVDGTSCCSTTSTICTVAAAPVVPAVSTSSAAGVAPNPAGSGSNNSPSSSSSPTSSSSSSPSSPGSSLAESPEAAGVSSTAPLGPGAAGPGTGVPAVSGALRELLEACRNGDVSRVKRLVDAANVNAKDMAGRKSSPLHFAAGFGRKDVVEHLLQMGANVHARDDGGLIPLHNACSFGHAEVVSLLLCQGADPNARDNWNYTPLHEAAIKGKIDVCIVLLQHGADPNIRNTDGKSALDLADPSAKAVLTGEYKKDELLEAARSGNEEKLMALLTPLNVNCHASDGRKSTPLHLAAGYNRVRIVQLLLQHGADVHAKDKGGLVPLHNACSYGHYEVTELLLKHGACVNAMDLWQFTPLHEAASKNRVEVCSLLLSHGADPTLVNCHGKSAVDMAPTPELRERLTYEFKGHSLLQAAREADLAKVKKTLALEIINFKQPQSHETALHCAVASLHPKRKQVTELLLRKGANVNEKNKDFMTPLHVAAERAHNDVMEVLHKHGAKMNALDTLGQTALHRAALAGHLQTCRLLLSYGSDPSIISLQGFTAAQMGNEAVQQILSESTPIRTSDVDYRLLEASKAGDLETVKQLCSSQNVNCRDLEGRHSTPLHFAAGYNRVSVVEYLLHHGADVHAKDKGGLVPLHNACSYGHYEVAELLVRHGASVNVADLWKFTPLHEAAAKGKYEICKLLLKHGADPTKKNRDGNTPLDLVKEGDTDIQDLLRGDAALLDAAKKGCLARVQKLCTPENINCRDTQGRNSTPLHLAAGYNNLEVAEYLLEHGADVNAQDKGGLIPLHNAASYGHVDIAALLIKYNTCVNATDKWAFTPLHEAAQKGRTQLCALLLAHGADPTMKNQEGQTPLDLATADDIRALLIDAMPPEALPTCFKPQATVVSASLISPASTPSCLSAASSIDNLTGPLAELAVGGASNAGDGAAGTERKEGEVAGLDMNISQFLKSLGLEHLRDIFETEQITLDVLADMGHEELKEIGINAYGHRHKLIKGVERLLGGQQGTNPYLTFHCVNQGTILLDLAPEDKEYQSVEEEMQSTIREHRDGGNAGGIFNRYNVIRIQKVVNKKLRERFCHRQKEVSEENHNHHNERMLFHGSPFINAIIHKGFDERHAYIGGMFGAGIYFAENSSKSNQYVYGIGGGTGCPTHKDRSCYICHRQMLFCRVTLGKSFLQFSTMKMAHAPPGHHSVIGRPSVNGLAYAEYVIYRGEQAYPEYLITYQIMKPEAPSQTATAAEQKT
protocol-summary: TNKS1 Assay 1 (TNKS1 Histone Ribosylation Assay Kit, biotin-labeled NAD+)
Assay type: biochemical
condition-summary: chemiluminescent readout, 384 well, Table 1
# IC50 listing for each entry below
Give the quantity in nM, number only.

Examples from the recorded data:
[
  {
    "compound": "CNC(=O)c1nc[nH]c1C(=O)Nc1ccc(NC(=O)c2ccccc2Cl)cc1",
    "target-desc": "TNKS1 (Homo sapiens, UniProt O95271)",
    "measurement-unit": "nM",
    "IC50": 100
  },
  {
    "compound": "CNC(=O)c1nc[nH]c1C(=O)Nc1ccc(NC(=O)c2ccccc2C)cc1",
    "target-desc": "TNKS1 (Homo sapiens, UniProt O95271)",
    "measurement-unit": "nM",
    "IC50": 1700
  },
  {
    "compound": "CNC(=O)c1nc[nH]c1C(=O)Nc1ccc(NC(=O)c2ccc(F)cc2Cl)cc1",
    "target-desc": "TNKS1 (Homo sapiens, UniProt O95271)",
    "measurement-unit": "nM",
    "IC50": 20
  },
  {
    "compound": "CNC(=O)c1nc[nH]c1C(=O)Nc1ccc(NC(=O)c2ccc(N(C)C)cc2Cl)cc1",
    "target-desc": "TNKS1 (Homo sapiens, UniProt O95271)",
    "measurement-unit": "nM",
    "IC50": 120
  },
  {
    "compound": "CC(C)NC(=O)c1ncoc1C(=O)Nc1ccc(NC(=O)c2ccc(F)cc2Cl)cc1",
    "target-desc": "TNKS1 (Homo sapiens, UniProt O95271)",
    "measurement-unit": "nM",
    "IC50": 900
  }
]

// sample "CNC(=O)c1nc[nH]c1C(=O)Nc1ccc(NC(=O)c2ccc(F)cc2)cc1" , its IC50 was 1700

// sample CCC(C)NC(=O)c1ncoc1C(=O)Nc1ccc(NC(=O)c2ccc(F)cc2Cl)cc1 (centres unmarked) , its IC50 was 1300

// sample "O=C(Nc1ccc(NC(=O)c2[nH]cnc2C(=O)NCc2ccccc2)cc1)c1ccc(F)cc1Cl" , its IC50 was 420

// sample "CNC(=O)c1nc[nH]c1C(=O)Nc1ccc(NC(=O)c2ccc(OCCN3CCN(C)CC3)cc2Cl)cc1" , its IC50 was 70

// sample "CNC(=O)c1nc[nH]c1C(=O)Nc1ccc(NC(=O)c2cccc(Cl)c2Cl)cc1" , its IC50 was 1010

// sample "COC(=O)c1ncoc1C(=O)Nc1ccc(NC(=O)c2ccc(F)cc2Cl)cc1" , its IC50 was 420

// sample "CNC(=O)c1nc[nH]c1C(=O)Nc1ccc(NC(=O)c2c(C)cc(F)cc2C)cc1" , its IC50 was 770

// sample "CNC(=O)c1nc[nH]c1C(=O)Nc1ccc(NC(=O)c2ccc(F)cc2Cl)nc1" , its IC50 was 70

// sample "CNC(=O)c1ncoc1C(=O)Nc1ccc(NC(=O)c2ccc(F)cc2Cl)cc1" , its IC50 was 220
